B1: Homeobox protein cut-like 1, residues 941 to 1008; numbered along this chain, P39880 (parent)
chain: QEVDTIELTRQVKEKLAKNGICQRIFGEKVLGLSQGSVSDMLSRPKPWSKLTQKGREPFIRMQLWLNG

- Variants of: B1
- assay_summary: abundance fitness (aPCA) (normalised: wild type 0, dead -1); higher = more abundant; growth selection in yeast, the domain comes from the species named
- test_settings: Homo sapiens
# maps each entry to its abundance fitness
Reply with the value as a number alone.

- variant_notation: "A17T"
  abundance fitness: -0.163
- variant_notation: "V12L"
  abundance fitness: -0.359
- variant_notation: "I21T"
  abundance fitness: -0.197
- variant_notation: "K18D"
  abundance fitness: -0.397
- variant_notation: "P47Q"
  abundance fitness: -0.068
- variant_notation: "K15F"
  abundance fitness: -0.175

Input: Read the entry I21H and write its reported abundance fitness.
Output: -0.425

Input: Find the measured abundance fitness of W48P and report it.
Output: -0.999

Input: Report abundance fitness for K50L
Output: -0.104

Input: Give recorded abundance fitness. I25H
Output: 0.073

Input: Check the records and state abundance fitness for D4L
Output: -0.572

Input: Return abundance fitness for the following variant: K18A
Output: -0.083

Input: Quick one: give measured abundance fitness for K50V
Output: -0.066
